The measured values listed here are drawn from PubChem BioAssay AID434970.

Listed below: activation factor values for each entry.
Tested on: intestinal alkaline phosphatase [Mus musculus]
assay_name: mouse intestinal phosphatase enzyme activation – biochemical, luminescence, single concentration, confirmation (AID 434970)
assay_conditions: purified mouse IAP, CDP-Star luminescence, 30 min, at 10 µM; measured here: IAP activation factor, stronger effect = higher value
Screen size: about 11,000 compounds; about 310 (2.8%) were called active. The list comes from a sample in which actives are over-represented; it also holds close analogues and randomly drawn compounds.

>  <molecule>
COc1cc(OC)cc(C(=O)Nc2c(F)cccc2F)c1

>  <experimental_system>
intestinal alkaline phosphatase [Mus musculus]

>  <activation factor>
1.02

$$$$
>  <molecule>
O=C(NCC1CCN(Cc2ccccc2Cl)CC1)Nc1cccc(Cl)c1

>  <experimental_system>
intestinal alkaline phosphatase [Mus musculus]

>  <activation factor>
1.77

$$$$
>  <molecule>
CCOC(=O)C1C(=O)NC(N2CCCCC2)=NC1C(C)C (stereo not given)

>  <experimental_system>
intestinal alkaline phosphatase [Mus musculus]

>  <activation factor>
0.936

$$$$
>  <molecule>
COc1ccc(C(=O)NCC(C)C)c(OC)c1

>  <experimental_system>
intestinal alkaline phosphatase [Mus musculus]

>  <activation factor>
0.893

$$$$
>  <molecule>
COc1cccc(C(=O)OCC(=O)Nc2ccccc2N2CCOCC2)c1

>  <experimental_system>
intestinal alkaline phosphatase [Mus musculus]

>  <activation factor>
0.909

$$$$
>  <molecule>
Cc1cc(NC(=O)Nc2cc(C)nn2-c2ccccc2)n(-c2ccccc2)n1

>  <experimental_system>
intestinal alkaline phosphatase [Mus musculus]

>  <activation factor>
0.992

$$$$
>  <molecule>
CC(O)[C@H](NC(=O)C1(c2ccccc2)CCN(C(=O)OC(C)(C)C)CC1)C(=O)O (stereo not given in full)

>  <experimental_system>
intestinal alkaline phosphatase [Mus musculus]

>  <activation factor>
1.15

$$$$
>  <molecule>
COc1ccc(-c2cc(C(=O)Nc3cc(C)nn3-c3ccccc3)no2)cc1

>  <experimental_system>
intestinal alkaline phosphatase [Mus musculus]

>  <activation factor>
0.921

$$$$
>  <molecule>
Cc1cc(NC(=O)Nc2ccc(Cl)cc2)n(-c2ccccc2)n1

>  <experimental_system>
intestinal alkaline phosphatase [Mus musculus]

>  <activation factor>
2.07

$$$$
>  <molecule>
O=C(NCCOc1ccccc1F)Nc1ccc(Br)cc1

>  <experimental_system>
intestinal alkaline phosphatase [Mus musculus]

>  <activation factor>
1.46

$$$$
>  <molecule>
Cc1cc2c(ncn2C)c(NS(=O)(=O)c2cc(Cl)ccc2Cl)c1C

>  <experimental_system>
intestinal alkaline phosphatase [Mus musculus]

>  <activation factor>
0.946

$$$$
>  <molecule>
COCCn1c(Sc2ccccc2)nc2c1c(=O)[nH]c(=O)n2C

>  <experimental_system>
intestinal alkaline phosphatase [Mus musculus]

>  <activation factor>
1.07

$$$$
>  <molecule>
Cc1cc(NC(=O)c2ccc(C)s2)n(-c2ccccc2)n1

>  <experimental_system>
intestinal alkaline phosphatase [Mus musculus]

>  <activation factor>
1.01

$$$$
>  <molecule>
O=C(N/N=C/c1ccc([N+](=O)[O-])o1)c1ccccc1NS(=O)(=O)c1cccs1

>  <experimental_system>
intestinal alkaline phosphatase [Mus musculus]

>  <activation factor>
0.375

$$$$
>  <molecule>
NC(=O)C1CCN(CC(=O)Nc2ccccn2)CC1

>  <experimental_system>
intestinal alkaline phosphatase [Mus musculus]

>  <activation factor>
0.922

$$$$
>  <molecule>
COc1cccc(-c2cc(C(=O)Nc3cc(C)nn3-c3ccccc3)no2)c1

>  <experimental_system>
intestinal alkaline phosphatase [Mus musculus]

>  <activation factor>
1.1

$$$$
>  <molecule>
CCN(C1CCCCC1)S(=O)(=O)c1cc(C)ccc1OC

>  <experimental_system>
intestinal alkaline phosphatase [Mus musculus]

>  <activation factor>
1.04

$$$$
>  <molecule>
COc1ccc(C)cc1NC(=O)C1C2C=CC(C2)C1C(=O)O (stereo not given)

>  <experimental_system>
intestinal alkaline phosphatase [Mus musculus]

>  <activation factor>
0.955

$$$$
>  <molecule>
Cc1cc2oc(=O)cc(-c3ccccc3)c2c(C)c1-c1ccc(N(C)C)cc1

>  <experimental_system>
intestinal alkaline phosphatase [Mus musculus]

>  <activation factor>
0.885

$$$$
>  <molecule>
COc1cc(NC(=O)C2CCCN(c3ncccn3)C2)cc(OC)c1 (stereo not given)

>  <experimental_system>
intestinal alkaline phosphatase [Mus musculus]

>  <activation factor>
1.11

$$$$
